The reported measurements were obtained from patent US20260151360A1.

- Method Description: Plasma pharmacokinetics of endoxifen after administration of the compositions
- Assay type: in vivo
- Measurement Setup: human, plasma, endoxifen released from a composition disclosed herein; read-out: terminal elimination half-life
Value Type: half-life

Exam item: I have this compound here, CC/C(=C(\c1ccc(O)cc1)c1ccc(OCCNC)cc1)c1ccccc1 [endoxifen, 4-hydroxy-N-desmethyl-tamoxifen] , and I need its recorded half-life.
Marked response: 30 to 60 h

====

- Method Description: Plasma pharmacokinetics of endoxifen after administration of the compositions
- Type: in vivo
- Measurement Setup: human, plasma, Day 21, compositions comprising 1 mg to 4 mg of (Z)-endoxifen; read-out: mean AUC24hr
Value Type: AUC(0-t)

Exam item: I have this molecule here, CC/C(=C(\c1ccc(O)cc1)c1ccc(OCCNC)cc1)c1ccccc1 [(Z)-endoxifen] , and I need its recorded AUC(0-t).
Marked response: 400 to 2500 ng·h/mL
